# test_system: huCDH19(44-772) with Flag tag (construct A, Hu EC1-5) (human, UniProt Q9H159 44-772)
# measurement_notes: flow cytometry, transfected 293T cells, 2 mM CaCl2;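 also: binding of Alexa647-labelled anti-CDH19 antibodies to cells expressing human/chicken CDH19 chimeras, read as cell-bound fluorescence, with mock-transfected cells as controls, n.d. meaning not determined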

binder	binding result
hu anti-<huCDH19> 4B10 (Ab ID 13590) (antibody, V domains shown, huIgG1z / huKLC; Bin 4) VH: QVQLVESGGGVVQPGRSLRLSCAASGFTFSSYDMHWVRQAPGKGLEWVAVISYDGTNEYYADSVKGRFTISRDTSKNTLYLQMNSLRAEDTAVYYCARERYFDWSFDYWGQGTLVSVSS VL: EIVLTQSPGTLSLSPGERATLSCRASQSVSNTYLAWYHQRPGQAPRLLIYGASSRATGIPDRFSGSGSGTDFALTISSLEPEDFAVYYCQQYSNSWTFGQGTKVEIKR	binds

Reference for the values: patent US20220127354A1
